Numbers sourced from patent US11078214B2.

tested-on: recombinant pjDHFR (Pneumocystis jirovecii (Human pneumocystis pneumonia agent), UniProt Q9UUP5)
recorded-conditions: read-out: DHFR Pj; Section I Table 3; 37° C., 18 μM dihydrofolic acid; title says μM, head nM
property-measured: IC50 (µM)
Provide the reading as a plain figure in µM.

Input line: Give its IC50 value. Item: `Cc1nc(N)nc2ccc(Nc3cc(F)c(F)c(F)c3)nc12`
Output line: 0.87

---

Test system: MDA-MB-435 cancer cells
assay-procedure: Antiproliferative sulforhodamine B (SRB) assay in MDA-MB-435 cells
Type: cell-based, human
recorded-conditions: Section II Table 1; SRB assay; read-out: MDA-MB-435 IC50 ± SD
property-measured: IC50 (nM)
Provide the reading as a plain figure in nM.

Input line: Give its IC50 value. Item: COc1ccc(/C=C\c2cc(OC)c(OC)c(OC)c2)cc1O [CA4, Combretastatin A-4, reference compound]
Output line: 3.4
